Numbers sourced from PubChem BioAssay (Tox21).

TEST_TARGET: Muscarinic acetylcholine receptor M1 (Homo sapiens) (UniProt P11229)
Sequence (P11229 whole entry, looked up): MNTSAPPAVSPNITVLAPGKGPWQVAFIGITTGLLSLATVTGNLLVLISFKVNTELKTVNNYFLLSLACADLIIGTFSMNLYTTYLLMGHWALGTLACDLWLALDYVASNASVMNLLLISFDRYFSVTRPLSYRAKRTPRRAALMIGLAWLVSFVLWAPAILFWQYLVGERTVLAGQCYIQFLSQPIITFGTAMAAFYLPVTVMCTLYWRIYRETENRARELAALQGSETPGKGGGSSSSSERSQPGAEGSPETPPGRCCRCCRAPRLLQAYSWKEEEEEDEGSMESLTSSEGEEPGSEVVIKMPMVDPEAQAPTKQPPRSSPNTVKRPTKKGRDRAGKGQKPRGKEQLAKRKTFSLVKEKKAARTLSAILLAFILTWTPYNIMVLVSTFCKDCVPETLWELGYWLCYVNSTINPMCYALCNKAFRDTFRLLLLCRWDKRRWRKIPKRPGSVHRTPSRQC
MEASUREMENT_PROTOCOL: Cholinergic receptor muscarinic 1 (CHRM1) small molecule antagonists, cell-based qHTS assay (AID 1963588); further: nearly all actives have a fitted effect of over 40% in size
REPORTED_CONDITIONS: CHRM1-CHO antagonist mode, calcium flux fluorescence; series mostly up to 61.5 µM
Records with an inconclusive call do not appear. The source made the active and inactive calls. The call rests on the fitted dose curve.
Give your call using only these classes: True = active, False = inactive

Query: For `OCCN(CCO)c1cccc(Cl)c1` , which call appears in the assay record?
Response: False

Query: Next: `N#CCc1ccccc1[N+](=O)[O-]`
Response: False
